tested on: Escherichia coli; assay: Antibacterial activity against Escherichia coli IH3080 assessed as growth inhibition at 10 ug after 18 hrs by […]; format: functional
Bridge positions count the residues as written; N and C are the ends. Square brackets hold non-standard residues; d marks the D form. Peptide text beside a SMILES is read from it. * marks the point of attachment. Octanoyl = CCCCCCCC(=O)*; Dab = NCC[C@H](N)C(=O)O; Abu = CC[C@H](N)C(=O)O
quantity_name: inhibition zone (IZ)
Could you write the number and then its unit?

Example results:
# compound, quantity_name, observed_result
rows = [
    ("CCCCCCCC(=O)N[C@H](C(=O)N[C@@H](C(=O)N[C@H]1CCNC(=O)[C@H]([C@@H](C)O)NC(=O)[C@H](CCN)NC(=O)[C@H](CCN)NC(=O)[C@H]([C@@H](C)O)NC(=O)[C@H](Cc2ccccc2)NC(=O)[C@H](CCN)NC1=O)[C@@H](C)O)[C@@H](C)O", "inhibition zone (IZ)", "200 mm2"),
    ("CCCCCCCC(=O)N[C@@H](CCN)C(=O)N[C@H](C(=O)N[C@@H](CCN)C(=O)N[C@H]1CCNC(=O)[C@H]([C@@H](C)O)NC(=O)[C@H](CCN)NC(=O)[C@H](CC)NC(=O)[C@H](CC(C)C)NC(=O)[C@@H](Cc2ccccc2)NC(=O)[C@H](CC)NC1=O)[C@@H](C)O (Octanoyl-[Dab]T[Dab][Dab][Abu][dF]L[Abu][Dab]T; lactam 4-C)", "inhibition zone (IZ)", "0 mm2"),
]

Specify measured inhibition zone (IZ) for CCCCCCCC(=O)N[C@H](C(=O)N[C@@H](CC)C(=O)N[C@H]1CCNC(=O)[C@H]([C@@H](C)O)NC(=O)[C@H](CCN)NC(=O)[C@H](CCN)NC(=O)[C@H](CC(C)C)NC(=O)[C@@H](Cc2ccccc2)NC(=O)[C@H](CCN)NC1=O)[C@@H](C)O (Octanoyl-T[Abu][Dab][Dab][dF]L[Dab][Dab]T; lactam 3-C) . 32 mm2
